Source: PubChem BioAssay (NCI)

- TEST_NAME: NCI Yeast Anticancer Drug Screen. Data for the CLN2oe strain (AID 163)
- CONDITION_SET: S. cerevisiae CLN2oe strain, at 33.0 µM
Compounds without any hit were thinned out: in the full panel of roughly 79,000, 15% have a hit. Calls of active or inactive are those of the source. Rule as the data show it: active = growth inhibition above about 70%; inactive = the rest.
Valid outcomes are listed here; reply with one: active, inactive

Q. # lookup: test call for C[C@@](O)(/C=C/[C@H]1CC=CC(=O)O1)[C@@H](C[C@@H](O)\C=C/C=C\C=C\CO)OP(=O)(O)O
A. inactive

Q. Proceed to OCC(CO)C(c1cccc2ccccc12)c1cccc2ccccc12
A. active

Q. Proceed to CNCCCNc1c2ccccc2nc2cccc([N+](=O)[O-])c12
A. active

Q. Proceed to NC1CCCCC1N.Nc1c(N=Nc2ccc(-c3ccc(N=Nc4cc(S(=O)(=O)[O-])c5ccccc5c4N)cc3)cc2)cc(S(=O)(=O)[O-])c2ccccc12.[OH3+].[OH3+].[Pt+4]
A. active

Q. Proceed to COC(=O)/C=C(/C(=O)OC)C(Cl)(Cl)Cl
A. inactive

Q. Proceed to N#CC(=Nc1ccccc1F)Nc1ccccc1F
A. inactive

Q. Proceed to CC(=O)OCC(C)Cc1cc2c(cc1Br)OCO2 (stereo not drawn)
A. inactive

Q. Proceed to O=C(NCCCl)Sc1ccc(Cl)cc1
A. inactive

Q. Proceed to COC(=O)CC1CCc2c(ccc3ccccc23)C1(C)C(=O)OC (stereo not drawn)
A. inactive

Q. Proceed to O=C(O)CNC(=S)Nc1ccccc1
A. inactive

Q. Proceed to CCc1cc(O)c(Cl)c(C)c1Cl
A. inactive

Q. Proceed to Cc1ccc(CC2(OCCN(C)C)CCC(C(C)(C)C)CC2)cc1 (stereo not drawn)
A. inactive

Q. Proceed to CCN(CC)CCNc1ccc([N+](=O)[O-])c2nc3ccccc3c(N)c12
A. inactive

Q. Proceed to Cc1c2cccc(Sc3ccccc3)c2c2c3c(cccc13)[S+](c1ccccc1)C2 (stereo not drawn)
A. active

Q. Proceed to CC(C)(C)c1ccc(NS(=O)(=O)c2ccc(N)cc2)cc1
A. inactive

Q. Proceed to C=C(Cl)COC(=O)Nc1cccc(Cl)c1
A. inactive

Q. Proceed to CC(NCCN(C)C)C1CCC2C3CCc4cc(O)ccc4C3CCC12C (stereo not drawn)
A. inactive

Q. Proceed to CCCC(=O)Oc1c(C)cc([N+](=O)[O-])cc1[N+](=O)[O-]
A. active

Q. Proceed to OC1(c2ccccc2)CCCc2ccc(Cl)cc21 (stereo not drawn)
A. inactive

Q. Proceed to CC(=O)OC1CCC2(C)C(=CC(C3C=C4CC(OC(C)=O)CCC4(C)C4=C3C3CC5OC6(CCC(C)CO6)C(C)C5C3(C)CC4)C3=C2CCC2(C)C3CC3OC4(CCC(C)CO4)C(C)C32)C1 (stereo not drawn)
A. inactive

Q. Proceed to O=C1CC(=O)c2ccccc21
A. inactive

Q. Proceed to COc1cc(/C=N/Nc2nnc3c4ccccc4c4ncccc4c3n2)cc(OC)c1OC
A. inactive

Q. Proceed to CCCCCCSc1ncnc2[nH]ncc12
A. inactive

Q. Proceed to CCCCOP(=O)(CCCP(=O)(OCCCC)OCCCC)OCCCC
A. inactive

Q. Proceed to COc1ccc(C2C3=C(COC3=O)OC(C)(C)Oc3cc4c(cc32)OCO4)cc1OC (stereo not drawn)
A. inactive

Q. Proceed to O=C(CC(=O)n1nc(-c2ccccc2)c(N=Nc2ccc(Cl)cc2)c1-c1ccccc1)Nc1cccc(Cl)c1
A. inactive

Q. Proceed to S=C1SCN(C2CCCCC2)CN1C1CCCCC1
A. inactive

Q. Proceed to N=C1N=Nc2nc(C3(c4nc5n(c4O)C(=N)N=N5)Cc4ccccc4C3=O)c(O)n21 (stereo not drawn)
A. inactive

Q. Proceed to Cn1c(-c2ccc(/C=N\N3CCN(/N=C/c4ccc(-c5c[n+]6ccccc6n5C)cc4)CC3)cc2)c[n+]2ccccc12
A. inactive

Q. Proceed to C=C1CCC(O)C/C1=C/C=C1\CCCC2(C)C1CCC2C(C)CCCC(C)C (stereo not drawn)
A. inactive

Q. Proceed to O=[N+]([O-])c1cc(S(=O)(=O)Nc2ccccc2)ccc1Nc1ccccc1
A. active

Q. Proceed to CCCCN(CCCC)C(=O)/C=C/c1ccccc1
A. inactive

Q. Proceed to CCCC/C=C/C(C)(C(=O)OCC)C(=O)OCC
A. inactive

Q. Proceed to CCCCCCCCCCCCCCCCCC(=O)NCCCN(C)C
A. active

Q. Proceed to Brc1ccccc1-c1ncc(-c2ccccc2)o1
A. inactive

Q. Proceed to O=C1C=C(c2ccccc2)OC1(c1ccccc1)N1CCOCC1 (stereo not drawn)
A. inactive

Q. Proceed to Cc1cc(NCCCCCCCCNc2cc(C)nc3cc(N)ccc23)c2ccc(N)cc2n1
A. active

Q. Proceed to Cc1c2cc[n+](Cc3ccc(I)cc3)cc2c(C)c2c1[nH]c1ccccc12
A. active

Q. Proceed to CCCOC(=O)C(F)C(Br)C(=O)OCCC (stereo not drawn)
A. active

Q. Proceed to Cc1cc(S(=O)(=O)Nc2nnc3cnc4ccccc4n23)c(S)cc1Cl
A. inactive

Q. Proceed to CCOC(=O)COc1c(OC)cc(C2C3=C(COC3=O)Oc3cc4c(cc32)OCO4)cc1OC (stereo not drawn)
A. inactive

Q. Proceed to O=C1CSC(c2cccc(Cl)c2)N1c1ccc(-c2ccc(-n3c(-c4ccccc4)nc4ccccc4c3=O)cc2)cc1 (stereo not drawn)
A. inactive

Q. Proceed to Cc1ccc(Cl)cc1NC(=O)OCCN(C)C(=O)Nc1cc(Cl)ccc1C
A. inactive
